The measured values listed here are drawn from paper PMC12040169.

viability at 28.5 h, 10 µM: recorded values
Run Description: in vitro
Experimental Context: human, hela cells, % viability
The answer is to be given in %; state only the numeric part.

> print(dat)
                                   compound  output.unit  reported
1  Cc1cc(=O)nc(N/C(N)=N/c2cccc([N+](=O)[O-])c2)[nH]1 [CBK264857]            %       102
2  NC(=O)c1c(NC(=S)NC(=O)c2ccccc2Br)sc2c1CCC2 [CBK265543]            %      89.3
3  Cc1ccc2oc(C(=O)N3CCC(Oc4cccnc4)CC3)cc2c1 [CBK281498]            %       106
4  Cc1cc(-c2csc(CC(C)n3cc(Cl)cn3)n2)on1 (centres unmarked) [CBK304700]            %      91.3

// moving on: another record for viability at 28.5 h, 10 µM
Ask: Entry under review: Cc1ccc(Cc2cnc(NC(=O)C3CCCO3)s2)cc1Cl (centres unmarked) [CBK305013] . Reported viability at 28.5 h, 10 µM?
Result: 96

---

viability at 28.5 h, 10 µM: recorded values
Run Description: in vitro
Experimental Context: human, hela cells, % viability
The answer is to be given in %; state only the numeric part.

Examples with answers:
> print(dat)
                                   compound  reported
1  COc1ccc(C(=O)C2=C(O)C(=O)N(CCCN(C)C)C2c2ccncc2)cc1C (stereo not drawn)       102
2    Cc1ccsc1CN1CCCCC1CO (stereo not drawn)       107
3  O=C(O)C1CSC(c2ccc([N+](=O)[O-])cc2)N1 (stereo not drawn)       103
4  COc1cc(-c2nccnc2N2CCN(c3ccncc3)CC2)cc(OC)c1OC        92
5  O=C(O)c1cccc(S(=O)(=O)Nc2ccccc2C(=O)NCc2ccccc2)c1       106
6  C#CCN(C)CC[C@@H]1CC[C@H](O)[C@@H](C(=O)NC(C)C)O1       109

Ask: Entry under review: `Brc1ncccc1OCc1ccccc1` . Reported viability at 28.5 h, 10 µM?
Result: 82.6

Ask: Follow-up entry: CCC(C)NC(=O)C1CCC(=O)N1Cc1ccc(C)cc1 (stereo not drawn)
Result: 90

Ask: Follow-up entry: CCN(CC)C(=O)C1CCCN(C(=O)NCc2ccc(Cl)c(Cl)c2)C1 (stereo not drawn)
Result: 98.8

Ask: Follow-up entry: NC(CCC(=O)O)C(=O)O (stereo not drawn) [CBK260875C]
Result: 97.3

Ask: Follow-up entry: CN(C(=O)CN1CCOC(Cn2cccn2)C1)C1(C#N)CCCCC1 (stereo not drawn)
Result: 97.3

---

viability at 28.5 h, 10 µM: recorded values
Run Description: in vitro
Experimental Context: human, hela cells, % viability
The answer is to be given in %; state only the numeric part.

> print(dat)
                                    compound  output.unit  reported
 1                CCn1c(C)nc2cc(Cl)c(Cl)cc21            %      89.3
 2  COc1cccc(C(=O)NC(c2ccc(OC)c(OC)c2)c2cc(Cl)c3cccnc3c2O)c1 (centres unmarked)            %      95.4
 3  Cc1ccc2cc(CN(Cc3cccs3)C(=O)NCc3ccccc3)c(=O)[nH]c2c1C            %      91.2
 4  Cc1cc(C)nc(NC(=O)C(C)Oc2ccc(Cl)cc2Cl)n1 (centres unmarked)            %      90.4
 5   Cc1[nH]ncc1C(=O)N1CCn2cc(C(F)(F)F)nc2C1            %      87.7
 6        Cc1ccc(CSCCNC(=O)/C=C/c2ccccc2)cc1            %      95.3
 7  CSc1nc(NC(=O)c2ccccc2)cc(N2CCNCC2)n1 [CBK050266T]            %      93.6
 8  CC(=O)Nc1ccc(-c2ccc3n(c2=O)C[C@H]2C[C@@H]3CN(C(=O)C3CCCCC3)C2)cc1            %      84.6
 9  CC(=O)OCc1ccc(CN2CCCCCC2c2cc(C)no2)o1 (centres unmarked)            %       100
10  CNC(=O)C1(Cc2ccc(-c3cccs3)cc2)CCN(C(=O)C2CCCCC2)CC1            %        88

Ask: Entry under review: O=C(NS(=O)(=O)c1cccc(-c2nnco2)c1)C1CC1C1CCCCC1 (centres unmarked) . Reported viability at 28.5 h, 10 µM?
Result: 90.8

Ask: Follow-up entry: `Cn1c(=O)n(C)c2cc(NC(=O)CSc3nc(Nc4ccccc4)nc(N4CCOCC4)n3)ccc21`
Result: 111

Ask: Follow-up entry: `O=C(NCc1ccco1)c1cc(S(=O)(=O)N2CCOCC2)ccc1Br`
Result: 90.7

Ask: Follow-up entry: `COc1ncc(-c2ccc(NCC(C)C)nc2)c(OC)n1`
Result: 116
